Target: PD-1 (UniProt Q15116)
Sequence (Q15116 25-170 limits assumed): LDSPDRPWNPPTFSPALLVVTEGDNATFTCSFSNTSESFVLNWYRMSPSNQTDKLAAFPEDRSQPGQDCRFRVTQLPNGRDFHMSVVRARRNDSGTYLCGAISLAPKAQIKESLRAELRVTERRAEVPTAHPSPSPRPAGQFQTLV
Assay: ELISA, TG1 supernatant on coated PD-1, anti-c-myc HRP

BINDER	OD450, clone binding with PD-1 [OD450]
NB209 (VHH) VHH: EVQVVESGGGLVQTGGSLRLSCAASGDTALFSAVGWYRQAPGKERELVAALTNTGITYYADSVEGRFTIFRDNAKNTVYLQMNSLKPEDTAVYYCNAGAPPPGGLGYDESDYWGQGTQVTVSS	3.22
NB205 (VHH) VHH: EVQLVESGGGLVQVGDSLRLSCAASGRTFSSVPMGWFRQAPGNQREFVAAISKSGGSAGYADSVKDRSTISRDNAKNTIYLQMNSLKPEDTAVYYCAASSFDFCSTHGCYDYWGQGTQVTISS	2.25
NB197 (VHH) VHH: QVQLQESGGGLVQPGGSLRLSCAASGFTLDDHSIGWFRQAPGKEREPVSCISTSDGRTYYEDSVKGRFTISRDKAKNTVYLQMDSLKPEDTAVYYCTTDVACYSDYDPSFRFWGQGTQVTVSS	2.66
NB735 (VHH) VHH: EVQVVESGGGLVQPGGSLTLSCAVSGFTLDDYSIGWFRQAPGRAREAVSCTSNRDGSTYYEDSVKGRFTISRDNAKNTVYLQMNSLKPEDTAVYRCSTDCSLYGSTYSPDYWGQGTQVIVSS	1.81
